molecules and their reported MIC
Tested on: Clostridium perfringens 81
method notes: microbe, parasite or virus in culture
Assay type: cell-based
run parameters: Clostridium perfringens, 81, 24 h, read-out: 24 Hr. Minimum Inhibitory Concentration

Examples with answers:
> print(dat)
                                   molecule                      system  readout.label  experimental.value
1  CCn1nc(-c2ncc([N+](=O)[O-])n2C)c(C#N)c1N [Compound 16]  Clostridium perfringens 81            MIC       < 0.125 µg/mL
2  CCCCC(CC)COC=Nc1c(C#N)c(-c2ncc([N+](=O)[O-])n2C)nn1C (stereo not drawn) [Compound 13D]  Clostridium perfringens 81            MIC             1 µg/mL
3  Cn1nc(-c2ncc([N+](=O)[O-])n2C)c(C(N)=O)c1N [Compound 2]  Clostridium perfringens 81            MIC       < 0.125 µg/mL
4  Cn1nc(-c2ncc([N+](=O)[O-])n2C)c(C#N)c1N [Compound 1]  Clostridium perfringens 81            MIC       < 0.125 µg/mL
5  C=CCOC=Nc1c(C#N)c(-c2ncc([N+](=O)[O-])n2C)nn1C [Compound 13A]  Clostridium perfringens 81            MIC             1 µg/mL

Let us move to another entry and its MIC.
Exam item: Requested field: MIC. Item: CCCCOC=Nc1c(C#N)c(-c2ncc([N+](=O)[O-])n2C)nn1C [Compound 7]
Marked response: < 0.125 µg/mL
